Would you mind telling me the reported kinase still bound, per cent of control of each entry?
molecular target: CSNK1G1 (human); assay: KINOMEscan competition binding; settings: compound 10.0 µM
Give the figure together with its unit, number first.

INPUT SMILES: Cc1cnc(-c2cnc(NCCNc3ccc(C#N)cn3)nc2-c2ccc(Cl)cc2Cl)[nH]1
QUANTITY NAME: kinase still bound, per cent of control
RESULT: 49%
//
INPUT SMILES: COc1ccc(CNC(=O)Nc2ncc([N+](=O)[O-])s2)cc1
QUANTITY NAME: kinase still bound, per cent of control
RESULT: 66%
//
INPUT SMILES: O=C1Nc2cc(Br)ccc2/C1=C1/Nc2ccccc2/C1=N\O
QUANTITY NAME: kinase still bound, per cent of control
RESULT: 39%

Now for another entry.
INPUT: Respond only with kinase still bound, per cent of control recorded for Cn1cc(C2=C(c3ccc(Cl)cc3Cl)C(=O)NC2=O)c2ccccc21
OUTPUT: 81%
